Catalogue of MIC values
System: Salmonella enterica
procedure text: Antibacterial activity against Salmonella enterica measured after 18 to 20 hrs by broth microdilution method
Type: functional
condition description: time 18-20 hrs
Square brackets hold non-standard residues; d marks the D form. Peptide text beside a SMILES is read from it. * marks the point of attachment. Pro(4S-Me) = C[C@@H]1CN[C@H](C(=O)O)C1; Decanoyl = CCCCCCCCCC(=O)*; Valol = CC(C)[C@@H](CO)N*; Aib = CC(C)(N)C(=O)O

{"compound": "CCCCCCCCCC(=O)NC(C)(C)C(=O)N1CCC[C@H]1C(=O)N[C@@H](Cc1ccccc1)C(=O)NC(C)(C)C(=O)N[C@@H](CCC(N)=O)C(=O)N[C@@H](CCC(N)=O)C(=O)NC(C)(C)C(=O)NC(C)(C)C(=O)N[C@@H](CCC(N)=O)C(=O)N[C@@H](CC(C)C)C(=O)N[C@H](CO)C(C)C (Decanoyl-[Aib]PF[Aib]QQ[Aib][Aib]QL-Valol)", "target entity": "Salmonella enterica", "qualifier operator": ">", "MIC [µM]": 128}
{"compound": "C=C[C@@H]1C[C@H](C)C[C@H](C)[C@H]1c1c(O)ccn(O[C@@H]2C(C(=O)OC)=C[C@@H](O)[C@@H](O)[C@H]2O)c1=O", "target entity": "Salmonella enterica", "qualifier operator": "=", "MIC [µM]": 128}
{"compound": "O=C(O)c1cn(C2CC2)c2cc(N3CCNCC3)c(F)cc2c1=O", "target entity": "Salmonella enterica", "qualifier operator": "=", "MIC [µM]": 0.05}
{"compound": "CCCCCCCCCC(=O)NC(C)(C)C(=O)N1C[C@@H](C)C[C@H]1C(=O)N[C@@H](Cc1ccccc1)C(=O)NC(C)(C)C(=O)N[C@@H](CCC(N)=O)C(=O)N[C@@H](CCC(N)=O)C(=O)NC(C)(C)C(=O)NC(C)(C)C(=O)N[C@@H](CCC(N)=O)C(=O)N[C@@H](CC(C)C)C(=O)N[C@H](CO)C(C)C (Decanoyl-[Aib][Pro(4S-Me)]F[Aib]QQ[Aib][Aib]QL-Valol)", "target entity": "Salmonella enterica", "qualifier operator": ">", "MIC [µM]": 128}
{"compound": "CO[C@H]1/C=C/O[C@@]2(C)Oc3c(C)c(O)c4c(O)c(c(/C=N/N5CCN(C)CC5)c(O)c4c3C2=O)NC(=O)/C(C)=C\\C=C\\[C@H](C)[C@H](O)[C@@H](C)[C@@H](O)[C@@H](C)[C@H](OC(C)=O)[C@@H]1C", "target entity": "Salmonella enterica", "qualifier operator": "=", "MIC [µM]": 2}
